Target: CYP1A1 (Homo sapiens, UniProt P04798)
Experiment: Inhibition of recombinant human CYP1A1 at 0.3 uM incubated for 25 mins using 7-ethyl-O-resorufin substrate in presence of NADPH regenerating system by fluorescence based ethoxyresorufin-O-deethylase assay
Type: ADME
Conditions: recombinant human CYP1A1, probe 7-ethyl-O-resorufin (7-ethoxyresorufin)
measure: inhibition at 25 min, 0.3 µM (%)

Some compounds with recorded inhibition at 25 min, 0.3 µM:
C[C@]12CC[C@@H]3c4cc(-c5cccc(O)c5)c(O)cc4CC[C@H]3[C@@H]1CC[C@@H]2O = 10
COc1ccc(-c2cc3c(cc2O)CC[C@@H]2[C@@H]3CC[C@]3(C)[C@@H](O)CC[C@@H]23)cc1 = 14

1: COc1ccc(-c2cc3c(cc2OC)CC[C@@H]2[C@@H]3CC[C@]3(C)[C@@H](OC)CC[C@@H]23)cc1
2: C[C@]12CC[C@@H]3c4cc(-c5cccc(F)c5)c(O)cc4CC[C@H]3[C@@H]1CCC2=O
Field: lower recorded inhibition at 25 min, 0.3 µM (choose 1 or 2 ) Mark your selection by writing its label.
1
(1: 1%, 2: 3%)

---

Target: CYP1A1 (Homo sapiens)
Sequence (P04798 whole entry): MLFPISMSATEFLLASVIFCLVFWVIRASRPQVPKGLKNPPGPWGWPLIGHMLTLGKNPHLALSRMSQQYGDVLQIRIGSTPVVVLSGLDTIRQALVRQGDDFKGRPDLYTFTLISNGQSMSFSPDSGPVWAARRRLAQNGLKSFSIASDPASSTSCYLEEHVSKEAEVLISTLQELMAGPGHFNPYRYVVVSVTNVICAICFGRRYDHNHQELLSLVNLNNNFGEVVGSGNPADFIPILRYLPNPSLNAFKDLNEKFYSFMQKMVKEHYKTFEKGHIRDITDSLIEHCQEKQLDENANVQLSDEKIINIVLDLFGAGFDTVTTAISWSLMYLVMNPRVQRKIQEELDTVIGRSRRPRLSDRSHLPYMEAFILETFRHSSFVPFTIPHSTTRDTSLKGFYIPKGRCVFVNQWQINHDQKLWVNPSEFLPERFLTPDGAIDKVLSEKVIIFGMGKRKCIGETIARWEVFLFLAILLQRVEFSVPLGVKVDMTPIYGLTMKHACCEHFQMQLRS
Assay: Inhibition of recombinant human CYP1A1 at 0.3 uM incubated for 25 mins using 7-ethyl-O-resorufin substrate in presence of NADPH regenerating system by fluorescence based ethoxyresorufin-O-deethylase assay
Format: ADME
Settings: recombinant human CYP1A1, probe 7-ethyl-O-resorufin (7-ethoxyresorufin)
measure: inhibition at 25 min, 0.3 µM (%)

Some molecules with recorded inhibition at 25 min, 0.3 µM:
C[C@]12CC[C@@H]3c4ccc(SCc5cccnc5)cc4CC[C@H]3[C@@H]1CCC2=O = 9
COc1ccc(-c2cc3c(cc2O)CC[C@@H]2[C@@H]3CC[C@]3(C)C(=O)CC[C@@H]23)cc1 = 8
C[C@]12CC[C@@H]3c4cc(-c5ccc(Cl)cc5)c(O)cc4CC[C@H]3[C@@H]1CCC2=O = 9
C[C@]12CC[C@@H]3c4cc(-c5cccc(F)c5)c(O)cc4CC[C@H]3[C@@H]1CC[C@@H]2O = 12

I: C[C@]12CC[C@@H]3c4cc(-c5ccccc5)c(O)cc4CC[C@H]3[C@@H]1CC[C@@H]2O
II: C[C@]12CC[C@@H]3c4cc(-c5ccc(F)c(F)c5)c(O)cc4CC[C@H]3[C@@H]1CC[C@@H]2O
Higher inhibition at 25 min, 0.3 µM between I and II ? Mark your selection by writing its label.
I
(I: 9%, II: 2%)

I: C[C@]12CC[C@@H]3c4cc(-c5ccc(Cl)cc5)c(O)cc4CC[C@H]3[C@@H]1CC[C@@H]2O
II: C[C@]12CC[C@@H]3c4cc(-c5cccc(Cl)c5)c(O)cc4CC[C@H]3[C@@H]1CCC2=O
Field: lower recorded inhibition at 25 min, 0.3 µM (choose I or II ) Mark your selection by writing its label.
II
(II: 5%, I: 12%)

A: C[C@]12CC[C@@H]3c4cc(-c5cccc(O)c5)c(O)cc4CC[C@H]3[C@@H]1CCC2=O
B: COc1ccc(-c2cc3c(cc2OC)CC[C@@H]2[C@@H]3CC[C@@]3(C)[C@H]2CC[C@]3(C)O)cc1
C: C[C@]12CC[C@@H]3c4cc(-c5cccnc5)c(O)cc4CC[C@H]3[C@@H]1CC[C@@H]2O
D: C[C@]12CC[C@@H]3c4cc(-c5ccc(F)c(F)c5)c(O)cc4CC[C@H]3[C@@H]1CCC2=O
Arrange the 4 molecules from largest to smallest inhibition at 25 min, 0.3 µM. To answer, arrange all of the labels according to the requested order.
C, A, B, D

a: O=c1cc(-c2ccccc2)oc2c1ccc1ccccc12
b: C[C@]12CC[C@@H]3c4cc(-c5cccc(Cl)c5)c(O)cc4CC[C@H]3[C@@H]1CC[C@@H]2O
c: C#C[C@]1(O)CC[C@H]2[C@@H]3CCc4cc(OC)c(-c5ccc(OC)cc5)cc4[C@H]3CC[C@@]21C
Arrange the 3 molecules from largest to smallest inhibition at 25 min, 0.3 µM. To answer, arrange all of the labels according to the requested order.
a, b, c
(a: 30%, b: 16%, c: 4%)
